Data provenance: paper PMC2755957

Target: Δ^1–24-L-PGDS + S45A/S81A (Mus musculus, UniProt O09114, S45A/S81A)
Sequence (O09114 1-189 S45A/S81A): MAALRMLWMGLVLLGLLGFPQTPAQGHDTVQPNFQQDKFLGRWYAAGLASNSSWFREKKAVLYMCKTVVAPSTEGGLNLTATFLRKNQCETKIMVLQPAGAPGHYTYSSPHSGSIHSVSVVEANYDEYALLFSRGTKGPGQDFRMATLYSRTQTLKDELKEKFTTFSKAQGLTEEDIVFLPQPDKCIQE
Experiment: biochemical
readout_name: Kd (µM)
Quick reminder: number only, in µM, skip the unit.

// assay Δ^1–24-L-PGDS + S45A/S81A (Mus musculus, UniProt O09114, S45A/S81A), entry CCCCC[C@H](O)/C=C/[C@@H]1[C@@H](C/C=C\CCCC(=O)O)[C@H]2CO[C@@H]1C2 , Kd value = 19.1
